Parameter: Percent Effect. Scope: all listed entries.
tested on: Wolbachia pipientis; assay: Anti-Wolbachia Cell-Based Screen; format: functional; parameters: scale not given: in the data most compounds retested in dose-response had high values; conditions: 5 µM
Out of some 48,000 compounds screened, about 13,000 (27%) showed an effect of 50% or more. The list shows a part of the results.

COMPOUND | Percent Effect / %
CSc1ccc(NCC(=O)NCC(=O)N2CCCC2)cc1F | -3.658
CCn1c(C2CCNCC2)nn(CCCc2ccccc2)c1=O | 0.4782
CC(c1nc(C2CC2)no1)N1CCN(Cc2ccsc2)CC1 (configuration not stated) | 3.758
Cc1cncc(C2CCN(Cc3cccn3C)CC2)n1 | 121.9
Cc1cncc(C2CCCN(Cc3cccn3C)C2)n1 (configuration not stated) | 4.46
CCn1c(C2CCCN(C(=O)c3ccc[nH]3)C2)nn(CCN(C)C)c1=O (configuration not stated) | -8.209
CCCn1nc(C2CCNCC2)n(Cc2ccccc2)c1=O | -22.36
CCOCCn1nc(C2CCNCC2)n(Cc2ccccc2)c1=O | -5.43
COc1cncc(N2CCN(Cc3cccn3C)CC2)n1 | -11
CCn1c(C2CCNCC2)nn(CCn2ccc(C)n2)c1=O | 83.74
O=C(Cn1ccnc1)N1C[C@@H]2CC[C@H](Oc3cccc(F)c3)[C@@H]2C1 | 109
O=C(Cn1ccnc1)N1CCC(n2cc(-c3cccc(Cl)c3)nn2)CC1 | 2.937

* * *

tested on: Wolbachia pipientis; assay: Anti-Wolbachia Cell-Based Screen; format: functional; parameters: scale not given: in the data most compounds retested in dose-response had high values; conditions: 5 µM
Among all 48,000 compounds or so, about 13,000 (27%) showed an effect of 50% or more. This is one part of the list.
EXPERIMENTAL_ENDPOINT: Percent Effect (%)

MOLECULE | MEASUREMENT
Cc1ccc(C(=O)N2CCCN(C)c3ccc(F)cc32)o1 | 112.2
CN1CCCN(C(=O)c2cnsn2)c2cc(Cl)ccc21 | 103.8
CC1CN(C)c2ccccc2CN1C(=O)c1cnsn1 (stereo unspecified) | -24.53
CN1CCN(C(=O)c2csnn2)c2ccccc21 | 10.7
Cc1ccc(NC(=O)N2CCC(NC(=O)c3ccc(C)o3)CC2)cc1 | -6.266
O=C(c1cncc(Br)c1)N1CCCc2ccc(F)cc21 | 6.203

* * *

system: Wolbachia pipientis; test: Anti-Wolbachia Cell-Based Screen; assay type: functional; design: scale not given: in the data most compounds retested in dose-response had high values; conditions: 5 µM
Among all 48,000 compounds or so, about 13,000 (27%) showed an effect of 50% or more. The list shows a part of the results.
Each entry below lists one item and its recorded Percent Effect value.
EXPERIMENTAL_ENDPOINT: Percent Effect (%)

COMPOUND | MEASUREMENT
COc1cc(CC2CC(C(N)=O)=NO2)cc2c1OCO2 (stereo unspecified) | 107.2
Cc1ccc(CN2CCC3(C2)C(=O)N(CC(C)C)c2ccccc23)s1 (stereo unspecified) | 8.577
CCN1CCN(C[C@H]2CC[C@@H](Cc3ccc4c(c3)OCO4)O2)CC1 | 15.13
CN1CCN(C[C@H]2CC[C@@H](Cc3ccc4c(c3)OCO4)O2)CC1 | 5.044
c1cnnc(N2CCCC2CNCc2cnc(N3CCCC3)nc2)c1 (stereo unspecified) | -1.846
CC(C)CN1C(=O)C2(CCN(Cc3ccc(F)cc3)C2)c2ccccc21 (stereo unspecified) | 132
O=C(NCc1nc(NC2CCCC2)c2cc(Cl)ccc2n1)c1cscn1 | 4.35
COc1cc(CNCCc2nc(C)cs2)cc2c1OCCO2.Cl | -10.19
Cc1noc(C)c1S(=O)(=O)N1CCC(Oc2ccccn2)CC1 | 2.267
O=S(=O)(c1ccccc1F)N1CCC(Oc2cccnn2)CC1 | -7.526
CC[C@H]1CN(C(=O)c2cnc(CN3CCCC3)s2)CC[C@@]1(C)O | 12.41
